The entries below come with measured inhibition at 0.001 µM values attached.
- TESTED_SYSTEM: CYP17 (human testicular microsome) (Homo sapiens)
- Construct: using microsomal fraction from human testis (Celsis Cat #S00110) as the enzyme source; tissue Celsis S00110; host or cells: human testis microsomal fraction
- Sequence (P05093 whole entry): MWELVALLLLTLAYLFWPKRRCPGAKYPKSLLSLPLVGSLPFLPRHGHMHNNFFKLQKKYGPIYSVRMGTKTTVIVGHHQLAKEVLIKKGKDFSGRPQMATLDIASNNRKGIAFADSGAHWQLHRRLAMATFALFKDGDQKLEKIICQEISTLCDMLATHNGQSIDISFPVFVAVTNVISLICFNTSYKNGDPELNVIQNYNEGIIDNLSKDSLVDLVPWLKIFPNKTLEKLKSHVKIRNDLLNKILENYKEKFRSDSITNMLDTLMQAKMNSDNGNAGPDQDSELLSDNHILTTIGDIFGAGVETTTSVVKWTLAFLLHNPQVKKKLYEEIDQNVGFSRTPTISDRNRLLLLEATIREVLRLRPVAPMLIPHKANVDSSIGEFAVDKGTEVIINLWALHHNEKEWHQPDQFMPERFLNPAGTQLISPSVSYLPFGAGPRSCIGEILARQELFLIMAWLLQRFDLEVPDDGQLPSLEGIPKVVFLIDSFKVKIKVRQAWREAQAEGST
- TEST_METHOD_NOTES: CYP17 enzymatic assay (% inhibition at 1 nM) (Biological Example 12)
- Format: biochemical
- CONDITION_NOTES: compound at 1 nM, read-out: CYP17 enzymatic assay % inhibition at 1 nM (Biological Example No. 12)

# COMPOUND, TESTED_SYSTEM, inhibition at 0.001 µM
rows = [
    ("CN1C(=O)C[C@@]2(C)C1=CCC1C2CC[C@]2(C)C(c3cccnc3)=CCC12 (stereo partly shown) [Compound 185]", "CYP17 (human testicular microsome) (Homo sapiens)", "> 50%"),
]

Entry under test: CC(C)(C)C(=O)O[C@H]1CC[C@@]2(C)C(=CCC3C4=CC=C(c5cccnc5)[C@@]4(C)CCC32)C1 (stereo partly shown) [Compound 192] . Its inhibition at 0.001 µM was 10 to 50%

Entry under test: CC(=O)O[C@H]1CC[C@@]2(C)C(CCC3C4=CC=C(c5cnccc5C)[C@@]4(C)CCC32)C1 (stereo partly shown) [Compound 466] . Its inhibition at 0.001 µM was 10 to 50%

Entry under test: CNC1CC[C@@]2(C)C(CC[C@@H]3[C@@H]2CC[C@]2(C)C(c4cccnc4)=CC[C@@H]32)C1 (stereo partly shown) [Compound 211] . Its inhibition at 0.001 µM was 10 to 50%

Entry under test: C=C1C[C@@H]2[C@H](CC[C@]3(C)C(c4cccnc4)=CC[C@@H]23)[C@@]2(C)C=CC(=O)C=C12 [Compound 311] . Its inhibition at 0.001 µM was > 50%

Entry under test: Cc1ccncc1C1=CC=C2C3CCC4CC(=O)NCC[C@]4(C)C3CC[C@]12C (stereo partly shown) [Compound 463] . Its inhibition at 0.001 µM was 10 to 50%

Entry under test: CNC1C[C@H]2[C@@H]3CC=C(n4ccnc4)[C@@]3(C)CC[C@@H]2[C@@]2(C)CCC3CC312 (mixture of isomers) [Compound 248] . Its inhibition at 0.001 µM was < 10%
